B1: SNURF (parent)
chain: QVPVVDFQAELRQAFLAETPRGG

Variants of: B1
Test: protein stability index of a GFP-peptide fusion (GPS, HEK-293T) (PSI 1-6); higher = more stable;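 also: lentivirally expressed fusions sorted by FACS into six bins by GFP to DsRed ratio, PSI derived from sequencing read proportions per bin multiplied by bin number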
Conditions: c terminus: native
The entries below are paired with their reported protein stability index.
MEASURED ATTRIBUTE: protein stability index

>>> measured_value("G22D")
4.09
>>> measured_value("A14F")
2.58
>>> measured_value("V4T")
2.69
>>> measured_value("F15Y")
1.94
>>> measured_value("L16Y")
3.57
>>> measured_value("V4M")
3.48
>>> measured_value("Q13Y")
2.73
>>> measured_value("L11R")
3.83
>>> measured_value("G23E")
1.85
>>> measured_value("G22M")
1.95
>>> measured_value("R21A")
4.22
>>> measured_value("V5T")
2.34
>>> measured_value("V5I")
4.13
>>> measured_value("L16A")
2.42
>>> measured_value("F15W")
2.83
>>> measured_value("E18F")
1.67
>>> measured_value("Q1T")
3.88
>>> measured_value("L11D")
2.77
>>> measured_value("V2G")
2.61
